Answer each item with its documented remaining at 50 ng/mL.
# PROCEDURE_DETAILS: Metabolic stability in overnight fasted C57BL/6N mouse plasma assessed as compound remaining at 50 ng/mL, ip
# Format: ADME, cell-free
# MEASUREMENT_SETUP: read-out: Stability

Input line: Would you mind telling me what remaining at 50 ng/mL value was observed for CCNC(=O)[C@@H]1CCCN1C(=O)[C@H](CCCNC(=N)N)NC(=O)[C@H](CC(C)C)NC(=O)[C@@H](CC(C)C)NC(=O)[C@H](Cc1ccc(O)cc1)NC(=O)[C@H](CO)NC(=O)[C@H](Cc1c[nH]c2ccccc12)NC(=O)[C@H](Cc1c[nH]cn1)NC(=O)[C@@H]1CCC(=O)N1 [LEUPROLIDE] ?
Output line: > 90%

Input line: Bench note: what remaining at 50 ng/mL did CC(C)C[C@@H]1NC(=O)[C@@H](CC(C)C)NC(=O)[C@H](Cc2ccc(O)cc2)NC(=O)[C@H](CO)NC(=O)[C@H](Cc2c[nH]c3ccccc23)NC(=O)[C@H](Cc2cnc[nH]2)NC(=O)[C@@H]2CCCN2C(=O)C[C@H](C)NC(=O)[C@@H]2CCCN2C(=O)[C@H](CCCNC(=N)N)NC1=O show?
Output line: > 90%

====

I'd be grateful if you could share measured Cmax for these entries.
# PROCEDURE_DETAILS: Cmax in overnight fasted C57BL/6N mouse at 1 mg/kg, ip
# Format: ADME, organism-based
# Design: dose 1 mg/kg, route intraperitoneal
# MEASUREMENT_SETUP: in vivo
Note: unit ng/mL is implicit; provide only the numeric part.

Input line: Which Cmax value belongs to CC(C)C[C@@H]1NC(=O)[C@@H](CC(C)C)NC(=O)[C@H](Cc2ccc(O)cc2)NC(=O)[C@H](CO)NC(=O)[C@H](Cc2c[nH]c3ccccc23)NC(=O)[C@H](Cc2cnc[nH]2)NC(=O)[C@@H]2CCCN2C(=O)C[C@H](C)NC(=O)[C@@H]2CCCN2C(=O)[C@H](CCCNC(=N)N)NC1=O ?
Output line: 834

Input line: Which Cmax is listed for CCNC(=O)[C@@H]1CCCN1C(=O)[C@H](CCCNC(=N)N)NC(=O)[C@H](CC(C)C)NC(=O)[C@@H](CC(C)C)NC(=O)[C@H](Cc1ccc(O)cc1)NC(=O)[C@H](CO)NC(=O)[C@H](Cc1c[nH]c2ccccc12)NC(=O)[C@H](Cc1c[nH]cn1)NC(=O)[C@@H]1CCC(=O)N1 [LEUPROLIDE] ?
Output line: 190

====

# PROCEDURE_DETAILS: Metabolic stability in mouse renal epithelial cell membranes assessed as compound remaining at 10 nM measured at 120 mins
# Type: ADME, cell-based
# MEASUREMENT_SETUP: read-out: Stability
TEST_READOUT: remaining at 2 h, 0.01 µM (%)
Respond numerically; units are % and should not be typed.

Input line: Request the reported remaining at 2 h, 0.01 µM associated with CC(C)C[C@@H]1NC(=O)[C@@H](CC(C)C)NC(=O)[C@H](Cc2ccc(O)cc2)NC(=O)[C@H](CO)NC(=O)[C@H](Cc2c[nH]c3ccccc23)NC(=O)[C@H](Cc2cnc[nH]2)NC(=O)[C@@H]2CCCN2C(=O)C[C@H](C)NC(=O)[C@@H]2CCCN2C(=O)[C@H](CCCNC(=N)N)NC1=O
Output line: 100

Cited source: ChEMBL document CHEMBL2150946
